Taken from the Deep4Chem optical property database.

# Experimental Details: solvent given as SMILES
# Details: in CO
// NB: equality with 400 nm counts as not fulfilled; only absorption maximum strictly below is fulfilled

Please indicate whether the reported absorption maximum of "CCc1ccc(/C=N/c2cc(C(C)C)c(O)cc2C)cc1" is strictly below 400 nm.
fulfilled

Please indicate whether the reported absorption maximum of "C#CCNC1=C2C(C)=CC(C)=[N+]2[B-](F)(F)n2c(C)cc(C)c21" is strictly below 400 nm.
not fulfilled

Please indicate whether the reported absorption maximum of "Cc1ccc(Nc2ccc(Nc3ccc(C)cc3)c3c2C(=O)c2ccccc2C3=O)cc1" is strictly below 400 nm.
not fulfilled

Please indicate whether the reported absorption maximum of COC(=O)C(NC(=O)OC(C)(C)C)c1ccc2oc(-c3cc(OC)c(OC)cc3OC)nc2c1 (stereo not given) is strictly below 400 nm.
fulfilled

Please indicate whether the reported absorption maximum of "Cc1ccc(C2=C3C=C(I)C=[N+]3[B-](F)(F)n3cccc32)cc1" is strictly below 400 nm.
not fulfilled

Please indicate whether the reported absorption maximum of "C(/C=C/c1ccc(-n2c3ccccc3c3ccccc32)cc1)=C\c1ccncc1" is strictly below 400 nm.
fulfilled

Please indicate whether the reported absorption maximum of "CSc1cc(-c2cc3cc4c5c(c3oc2=O)CCCN5CCC4)oc(=O)c1C#N" is strictly below 400 nm.
not fulfilled

Please indicate whether the reported absorption maximum of "CCN1\C(=C/C=C/C=C/C2=[N+](CC)c3ccc4ccccc4c3C2(C)C)C(C)(C)c2c1ccc1ccccc21" is strictly below 400 nm.
not fulfilled

Please indicate whether the reported absorption maximum of "Nc1cc[nH]c(=S)n1" is strictly below 400 nm.
fulfilled

Please indicate whether the reported absorption maximum of CCN(CC)c1ccc(-c2nc3cc(C(NC(=O)OC(C)(C)C)C(=O)OC)ccc3o2)c(O)c1 (stereo not given) is strictly below 400 nm.
fulfilled

Please indicate whether the reported absorption maximum of "COc1ccc(-c2cc(-c3ccc(C)cc3)nc3c(C#N)c(N4CCCC4)nc(N)c23)cc1" is strictly below 400 nm.
not fulfilled

Please indicate whether the reported absorption maximum of "O=Cc1cc(O)c(C=O)cc1O" is strictly below 400 nm.
fulfilled

Please indicate whether the reported absorption maximum of "C#CCOc1ccc(/C=C/C2=[N+]3C(=C(c4ccc(N(C)CC)cc4)c4c(C)cc(C)n4[B-]3(F)F)C(C)=C2)cc1" is strictly below 400 nm.
not fulfilled

Please indicate whether the reported absorption maximum of "N#Cc1c(-n2nnc3c2-c2ccccc2CN(C(=O)CCN)c2ccccc2-3)n([C@H]2C[C@H](O)[C@@H](CO)O2)c2ncnc(N)c12" is strictly below 400 nm.
fulfilled

Please indicate whether the reported absorption maximum of "O=C1C=C(Nc2cc(F)cc(F)c2)C(=O)c2ccccc21" is strictly below 400 nm.
not fulfilled

Please indicate whether the reported absorption maximum of "NC(=O)CC[C@H](/[NH+]=C\C=C1\C=C(C(=O)O)N[C@H](C(=O)O)C1)C(=O)O" is strictly below 400 nm.
not fulfilled

Please indicate whether the reported absorption maximum of "O=C1C=Cc2cc3ccccc3c(=O)n21" is strictly below 400 nm.
fulfilled

Please indicate whether the reported absorption maximum of "CCN(CC)c1ccc(/C=C/C2=[O+][B-](F)(F)Oc3c2c(=O)oc2cc(N(CC)CC)ccc32)cc1" is strictly below 400 nm.
not fulfilled

Please indicate whether the reported absorption maximum of COC(=O)C(Cc1ccc2oc(-c3ccc4c(c3)c3ccccc3n4-c3ccccc3)nc2c1)NC(=O)OC(C)(C)C (stereo not given) is strictly below 400 nm.
fulfilled

Please indicate whether the reported absorption maximum of COC(=O)C(NC(=O)OC(C)(C)C)c1ccc2oc(-c3cc(OC)c(OC)c(OC)c3)nc2c1 (stereo not given) is strictly below 400 nm.
fulfilled

Please indicate whether the reported absorption maximum of "NCc1ccc2ccc3cccc4ccc1c2c34" is strictly below 400 nm.
fulfilled

Please indicate whether the reported absorption maximum of C[C@]12C(=O)NC(=O)N([C@H]3CC(O)[C@@H](CO)O3)[C@H]1[C@H]1Oc3cc4oc(=O)ccc4cc3[C@H]12 (stereo not given in full) is strictly below 400 nm.
fulfilled

Please indicate whether the reported absorption maximum of "COCCOCCOCCOc1ccc(OCCOCCOCCOC)c(C=O)c1" is strictly below 400 nm.
fulfilled

Please indicate whether the reported absorption maximum of "CCCCCCN(CCCCCC)c1ccc(C#Cc2ccc(C#N)cc2)cc1" is strictly below 400 nm.
fulfilled

Please indicate whether the reported absorption maximum of "CCN(CC)c1ccc2cc(-c3cc(SC)c(C#N)c(=O)o3)c(=O)oc2c1" is strictly below 400 nm.
not fulfilled

Please indicate whether the reported absorption maximum of "O=C1C2=C(O[B-](F)(F)[n+]3c2ccc2ccccc23)c2ccc(N3CCOCC3)c3cccc1c23" is strictly below 400 nm.
not fulfilled

Please indicate whether the reported absorption maximum of "CC(=O)c1ccc(/N=N/c2ccc(Nc3ccccc3)cc2)cc1" is strictly below 400 nm.
not fulfilled

Please indicate whether the reported absorption maximum of "COc1ccccc1-c1c(-c2ccccc2O)nc(-c2ccc(C(F)(F)F)cc2)n1-c1ccc(C)cc1" is strictly below 400 nm.
fulfilled

Please indicate whether the reported absorption maximum of "CCOC(=O)CCCCCn1c2ccccc2c(=O)c2cc(I)ccc21" is strictly below 400 nm.
not fulfilled

Please indicate whether the reported absorption maximum of "CN(C)c1ccc(-c2ccc(-c3nc(C#N)c(C#N)n3C)cc2)cc1" is strictly below 400 nm.
fulfilled

Please indicate whether the reported absorption maximum of "N#Cc1ccc(N/N=C/c2ccc3ccccc3c2O)cc1" is strictly below 400 nm.
fulfilled

Please indicate whether the reported absorption maximum of "CC(C)(C)c1ccc2c(c1)c1cc(C(C)(C)C)ccc1n2-c1ccc(C#Cc2ccccc2)cc1" is strictly below 400 nm.
fulfilled

Please indicate whether the reported absorption maximum of "CN(C)c1ccc(/C=C/C=N/N=C/c2ccc3ccc4cccc5ccc2c3c45)cc1" is strictly below 400 nm.
not fulfilled

Please indicate whether the reported absorption maximum of "COc1ccc2cc(-c3ccc(S(C)(=O)=O)cc3)oc(=O)c2c1" is strictly below 400 nm.
fulfilled

###

So I've got a bunch of compounds here, and I need their absorption maximum values.
# Experimental Details: solvent given as SMILES
# Details: in CC(C)=O
Please reply with the bare figure in nm and do not write the unit itself.

# return recorded absorption maximum for input "CC(C)(C)c1ccc2c(c1)c1cc(C(C)(C)C)ccc1n2-c1ccc(-c2nc(-c3ccc(-n4c5ccc(C(C)(C)C)cc5c5cc(C(C)(C)C)ccc54)cc3)nc(-c3ccc(P(=O)(c4ccccc4)c4ccccc4)cc3)n2)cc1"
380.02

# return recorded absorption maximum for input "[C-]#[N+]c1ccc(-c2ccc(N(C)C)cc2)cc1"
327

# return recorded absorption maximum for input "C#CCNC1=C2C(C)=CC(C)=[N+]2[B-](F)(F)n2c(C)cc(C)c21"
453

# return recorded absorption maximum for input "CCN(CC)c1ccc2cc(-c3ccc(S(C)(=O)=O)cc3)oc(=O)c2c1"
375

# return recorded absorption maximum for input "CN(C)c1ccc(/C=C/c2cc[n+](CCCCC[n+]3ccc(/C=C/c4ccc(N(C)C)cc4)cc3)cc2)cc1"
476

# return recorded absorption maximum for input "CCCCCCCCC1(CCCCCCCC)c2cc(C#CC#Cc3ccc(N(c4ccccc4)c4ccccc4)cc3)ccc2-c2ccc(C=O)cc21"
389

# return recorded absorption maximum for input "N#CC(C#N)=C(/C=C/c1cc2c3c(c1)CCCN3CCC2)c1ccc2c3c(cccc13)CC2"
535

# return recorded absorption maximum for input "Cc1ccc(Nc2ccc(Nc3ccc(C)cc3)c3c2C(=O)c2ccccc2C3=O)cc1"
638

# return recorded absorption maximum for input "CCCN1C(=O)C(=CC=CC=C2Oc3ccccc3N2CCCS(=O)(=O)[O-])C(=O)N(CCC)C1=S"
559

###

# Experimental Details: solvent given as SMILES
# Details: in CC1CCCCC1
Readout Name: absorption maximum (nm)
Please reply with the bare figure in nm and do not write the unit itself.

# return recorded absorption maximum for input COC(=O)C(Cc1ccc2oc(-c3ccc(N(c4ccccc4)c4ccccc4)cc3)nc2c1)NC(=O)OC(C)(C)C (stereo unspecified)
361.35

# return recorded absorption maximum for input COC(=O)C(NC(=O)OC(C)(C)C)c1ccc2oc(-c3cc(OC)c(OC)cc3OC)nc2c1 (stereo unspecified)
327

# return recorded absorption maximum for input "CN(C)c1cccc2c1C(=O)c1ccccc1C2=O"
487.5

# return recorded absorption maximum for input C=CCOc1ccc(-c2nc3cc(C(NC(=O)OC(C)(C)C)C(=O)OC)ccc3o2)cc1 (stereo unspecified)
324

# return recorded absorption maximum for input "CN(C)c1ccc(C2=Cc3cccc[n+]3[B-](F)(F)O2)cc1"
413

# return recorded absorption maximum for input COC(=O)C(NC(=O)OC(C)(C)C)c1ccc2oc(-c3cc(OC)c(OC)c(OC)c3)nc2c1 (stereo unspecified)
327

# return recorded absorption maximum for input COC(=O)C(NC(=O)OC(C)(C)C)c1ccc2oc(-c3ccc(N(C)C)cc3OC)nc2c1 (stereo unspecified)
336

# return recorded absorption maximum for input COC(=O)C(NC(=O)OC(C)(C)C)c1ccc2oc(-c3ccc(F)cc3)nc2c1 (stereo unspecified)
317

# return recorded absorption maximum for input CCN(CC)c1ccc(-c2nc3cc(C(NC(=O)OC(C)(C)C)C(=O)OC)ccc3o2)c(O)c1 (stereo unspecified)
364

# return recorded absorption maximum for input "CC(C)(C)c1ccc2cc3c4cccc5cccc(c6cc(C(C)(C)C)cc(c2c1)c63)c54"
438

# return recorded absorption maximum for input "CCN(CC)c1ccc2cc(-c3nc4ccccc4s3)c(=O)oc2c1"
425.4
